- Tested on: K-562 leukemia growth, % test/control
- measurement_notes: Anticancer human tumor K-562 cell line growth inhibition;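 note: spheroids exposed to compounds for 7 days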
- experimental_parameters: curve of first compound; second compound 1 µM; spheroids with HUVEC and MSC
- Text: Multicellular complex tumor spheroid response to LSD1 Inhibitor Iadademstat in combination with a variety of drugs and investigational agents in selected tumor cell lines The current study was undertaken to assess response to LSD1 inhibitors in combination with standard-of-care drugs and investigational agents in solid tumor complex spheroid models as well as in the K-562 leukemia. […] Compounds. […] If the clinical Cmax for an agent had not been determined, the highest concentration tested was 10 microM. […]
log10 IC50 reference
experimental_readout: log10 IC50 (log10 of the value in nM)

| molecule | log10 IC50 |
| --- | --- |
| Nc1ncn(C2CC(O)C(CO)S2)c(=O)n1 (centres undefined) + NC1CCC(NC2CC2c2ccccc2)CC1 | 2.17 |
| Nc1ccccc1NC(=O)c1ccc(CNC(=O)OCc2cccnc2)cc1 + NC1CC1c1ccc(-c2cccc(O)c2)cc1 | 2.22 |
| Nc1ncn(C2CC(O)C(CO)O2)c(=O)n1 (centres undefined) + NC1CC1c1ccc(-c2cccc(O)c2)cc1 | 2.99 |
| NS(=O)(=O)OCC1CC(n2ccc3c(NC4CCc5ccccc54)ncnc32)CC1O (centres undefined) + NC1CCC(NC2CC2c2ccccc2)CC1 | 1.17 |
| O=C(C=Cn1cnc(-c2cc(C(F)(F)F)cc(C(F)(F)F)c2)n1)NNc1cnccn1 + NC1CC1c1ccc(-c2cccc(O)c2)cc1 | 1.83 |
| O=C(C=Cn1cnc(-c2cc(C(F)(F)F)cc(C(F)(F)F)c2)n1)NNc1cnccn1 + NC1CCC(NC2CC2c2ccccc2)CC1 | 1.79 |
| Nc1ncn(C2CC(O)C(CO)S2)c(=O)n1 (centres undefined) + NC1CC1c1ccc(-c2cccc(O)c2)cc1 | 1.90 |
| CC1(C)CCC(CN2CCN(c3ccc(C(=O)NS(=O)(=O)c4ccc(NCC5CCOCC5)c([N+](=O)[O-])c4)c(Oc4cnc5[nH]ccc5c4)c3)CC2)=C(c2ccc(Cl)cc2)C1 + NC1CCC(NC2CC2c2ccccc2)CC1 | 3.82 |
| O=C(C=Cc1cccc(S(=O)(=O)Nc2ccccc2)c1)NO + NC1CC1c1ccc(-c2cccc(O)c2)cc1 | 2.34 |

====

- Test system: K-562 leukemia growth, % test/control
- measurement_notes: Anticancer human tumor K-562 cell line growth inhibition;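 note: spheroids exposed to compounds for 7 days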;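 for viability, T/C: 100% = DMSO vehicle wells and lower values mean fewer viable cells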
- experimental_parameters: second compound 0.316 µM; first compound 10 µM; stronger effect = lower value; spheroids with HUVEC and MSC
// returns false (0) unless viability, T/C is strictly below 40%, in which case true (1)

| molecule | tested_on | classification |
| --- | --- | --- |
| CC1COCCN1c1cc(C2(S(C)(=N)=O)CC2)nc(-c2ccnc3[nH]ccc23)n1 (stereo not given) + NC1CC1c1ccc(-c2cccc(O)c2)cc1 | K-562 leukemia growth, % test/control | true (1) |
| COc1ccc([C@@H](O)c2cc(-c3ncnc4cc(N5CCOCC5)ccc34)c(F)cc2Cl)nn1 + NC1CCC(NC2CC2c2ccccc2)CC1 | K-562 leukemia growth, % test/control | false (0) |
| O=C(c1cc(Cc2n[nH]c(=O)c3ccccc23)ccc1F)N1CCN(C(=O)C2CC2)CC1 + NC1CCC(NC2CC2c2ccccc2)CC1 | K-562 leukemia growth, % test/control | false (0) |
| COc1ccc([C@@H](O)c2cc(-c3ncnc4cc(N5CCOCC5)ccc34)c(F)cc2Cl)nn1 + NC1CC1c1ccc(-c2cccc(O)c2)cc1 | K-562 leukemia growth, % test/control | true (1) |
| CC1COCCN1c1cc(C2(S(C)(=N)=O)CC2)nc(-c2ccnc3[nH]ccc23)n1 (stereo not given) + NC1CCC(NC2CC2c2ccccc2)CC1 | K-562 leukemia growth, % test/control | true (1) |
| CC1(C)CCC(CN2CCN(c3ccc(C(=O)NS(=O)(=O)c4ccc(NCC5CCOCC5)c([N+](=O)[O-])c4)c(Oc4cnc5[nH]ccc5c4)c3)CC2)=C(c2ccc(Cl)cc2)C1 + NC1CCC(NC2CC2c2ccccc2)CC1 | K-562 leukemia growth, % test/control | true (1) |
| CC(C)c1c(-c2ccccc2)nc2c(C#N)c[nH]n2c1=O + NC1CCC(NC2CC2c2ccccc2)CC1 | K-562 leukemia growth, % test/control | false (0) |
| O=C(c1cc(Cc2n[nH]c(=O)c3ccccc23)ccc1F)N1CCN(C(=O)C2CC2)CC1 + NC1CC1c1ccc(-c2cccc(O)c2)cc1 | K-562 leukemia growth, % test/control | false (0) |
| CC(C)c1c(-c2ccccc2)nc2c(C#N)c[nH]n2c1=O + NC1CC1c1ccc(-c2cccc(O)c2)cc1 | K-562 leukemia growth, % test/control | false (0) |
| CC1(C)CCC(CN2CCN(c3ccc(C(=O)NS(=O)(=O)c4ccc(NCC5CCOCC5)c([N+](=O)[O-])c4)c(Oc4cnc5[nH]ccc5c4)c3)CC2)=C(c2ccc(Cl)cc2)C1 + NC1CC1c1ccc(-c2cccc(O)c2)cc1 | K-562 leukemia growth, % test/control | true (1) |

====

- Test system: K-562 leukemia growth, % test/control
- measurement_notes: Anticancer human tumor K-562 cell line growth inhibition;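 note: spheroids exposed to compounds for 7 days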;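 for viability, T/C: 100% = DMSO vehicle wells and lower values mean fewer viable cells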
- experimental_parameters: second compound 0.1 µM; first compound 0.00949 µM; stronger effect = lower value; spheroids with HUVEC and MSC
experimental_readout: viability, T/C (%)

| compound | tested_on | experimental_readout | units | reported_value |
| --- | --- | --- | --- | --- |
| O=C(C=Cc1cccc(S(=O)(=O)Nc2ccccc2)c1)NO + NC1CC1c1ccc(-c2cccc(O)c2)cc1 | K-562 leukemia growth, % test/control | viability, T/C | % | 106 |
| CCc1c2c(nc3ccc(O)cc13)-c1cc3c(c(=O)n1C2)COC(=O)[C@]3(O)CC + NC1CCC(NC2CC2c2ccccc2)CC1 | K-562 leukemia growth, % test/control | viability, T/C | % | 1.66 |
| COc1cc(C2c3cc4c(cc3C(OC3OC5COC(C)OC5C(O)C3O)C3COC(=O)C23)OCO4)cc(OC)c1O (stereo unspecified) + NC1CC1c1ccc(-c2cccc(O)c2)cc1 | K-562 leukemia growth, % test/control | viability, T/C | % | 89.1 |
| COc1cc(C2c3cc4c(cc3C(OC3OC5COC(C)OC5C(O)C3O)C3COC(=O)C23)OCO4)cc(OC)c1O (stereo unspecified) + NC1CCC(NC2CC2c2ccccc2)CC1 | K-562 leukemia growth, % test/control | viability, T/C | % | 86.3 |
| NS(=O)(=O)OCC1CC(n2ccc3c(NC4CCc5ccccc54)ncnc32)CC1O (stereo unspecified) + NC1CC1c1ccc(-c2cccc(O)c2)cc1 | K-562 leukemia growth, % test/control | viability, T/C | % | 50.7 |
| Nc1ncn(C2CC(O)C(CO)S2)c(=O)n1 (stereo unspecified) + NC1CCC(NC2CC2c2ccccc2)CC1 | K-562 leukemia growth, % test/control | viability, T/C | % | 107 |
| O=C(C=Cc1cccc(S(=O)(=O)Nc2ccccc2)c1)NO + NC1CCC(NC2CC2c2ccccc2)CC1 | K-562 leukemia growth, % test/control | viability, T/C | % | 103 |
| Nc1ccccc1NC(=O)c1ccc(CNC(=O)OCc2cccnc2)cc1 + NC1CC1c1ccc(-c2cccc(O)c2)cc1 | K-562 leukemia growth, % test/control | viability, T/C | % | 114 |
| Nc1ccccc1NC(=O)c1ccc(CNC(=O)OCc2cccnc2)cc1 + NC1CCC(NC2CC2c2ccccc2)CC1 | K-562 leukemia growth, % test/control | viability, T/C | % | 106 |
| NS(=O)(=O)OCC1CC(n2ccc3c(NC4CCc5ccccc54)ncnc32)CC1O (stereo unspecified) + NC1CCC(NC2CC2c2ccccc2)CC1 | K-562 leukemia growth, % test/control | viability, T/C | % | 58.9 |
| CCN(c1cc(-c2ccc(CN3CCOCC3)cc2)cc(C(=O)NCc2c(C)cc(C)[nH]c2=O)c1C)C1CCOCC1 + NC1CCC(NC2CC2c2ccccc2)CC1 | K-562 leukemia growth, % test/control | viability, T/C | % | 112 |
| CCc1c2c(nc3ccc(O)cc13)-c1cc3c(c(=O)n1C2)COC(=O)[C@]3(O)CC + NC1CC1c1ccc(-c2cccc(O)c2)cc1 | K-562 leukemia growth, % test/control | viability, T/C | % | 2.16 |
| CCN(c1cc(-c2ccc(CN3CCOCC3)cc2)cc(C(=O)NCc2c(C)cc(C)[nH]c2=O)c1C)C1CCOCC1 + NC1CC1c1ccc(-c2cccc(O)c2)cc1 | K-562 leukemia growth, % test/control | viability, T/C | % | 116 |
| Nc1ccn(C2OC(CO)C(O)C2(F)F)c(=O)n1 (stereo unspecified) + NC1CC1c1ccc(-c2cccc(O)c2)cc1 | K-562 leukemia growth, % test/control | viability, T/C | % | 49.8 |
| Nc1ccn(C2OC(CO)C(O)C2(F)F)c(=O)n1 (stereo unspecified) + NC1CCC(NC2CC2c2ccccc2)CC1 | K-562 leukemia growth, % test/control | viability, T/C | % | 5.69 |
| Nc1ncn(C2CC(O)C(CO)S2)c(=O)n1 (stereo unspecified) + NC1CC1c1ccc(-c2cccc(O)c2)cc1 | K-562 leukemia growth, % test/control | viability, T/C | % | 107 |

Taken from PubChem BioAssay AID1918948.
